- assayed-target: PPARαΔAB (Mus musculus)
- Type: binding, murine
- conditions-used: read-out: Kd (binding affinity of PPARα for each compound); 0.1 μM PPARαΔAB in 20 mM glucose in PBS; mean ± SEM (n = 3–4)
Entries and their Kd values follow.
reported-endpoint: Kd

[
  {
    "compound": "NCCCC(=O)O",
    "assayed-target": "PPARαΔAB (Mus musculus)",
    "recorded-value": "29.5 nM"
  },
  {
    "compound": "CN=C(N)NCCC[C@H](N)C(=O)O.Cl [Targinine hydrochloride, reference compound]",
    "assayed-target": "PPARαΔAB (Mus musculus)",
    "recorded-value": "33.5 nM"
  },
  {
    "compound": "CC(=O)N[C@@H]1[C@@H](O)[C@H](O)[C@@H](CO)O[C@@H]1O",
    "assayed-target": "PPARαΔAB (Mus musculus)",
    "recorded-value": "33.3 nM"
  }
]

* * *

- assayed-target: PPARαΔAB (Mus musculus, UniProt P23204)
- Sequence (P23204 101-468 limits assumed, stated change not applied): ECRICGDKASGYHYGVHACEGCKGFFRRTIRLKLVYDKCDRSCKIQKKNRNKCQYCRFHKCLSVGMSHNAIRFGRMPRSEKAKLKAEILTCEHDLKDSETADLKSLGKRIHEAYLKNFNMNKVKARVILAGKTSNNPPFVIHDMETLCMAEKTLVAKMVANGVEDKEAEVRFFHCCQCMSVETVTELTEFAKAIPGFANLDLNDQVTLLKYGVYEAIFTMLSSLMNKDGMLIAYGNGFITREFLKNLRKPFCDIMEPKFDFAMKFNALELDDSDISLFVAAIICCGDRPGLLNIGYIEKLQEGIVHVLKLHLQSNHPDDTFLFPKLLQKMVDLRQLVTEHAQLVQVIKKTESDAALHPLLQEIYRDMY
- measurement-description: Primary drug-screening assay: restoration of BODIPY-C16-CoA
- Assay type: binding, murine
- conditions-used: compound 1.25 μM; 20 mM glucose; 10 nM BODIPY-C16-CoA; 200 nM PPARαΔAB
Structures can show the parent of a compound that is named as a salt.
Values of Recovery (ability to restore acyl-CoA binding) strictly less than 70% map to Satisfied, and values of at least 70% map to Not satisfied.

[
  {
    "compound": "NC(=O)c1ccccc1O [Salicylamide]",
    "group-label": "Not satisfied"
  },
  {
    "compound": "CN=C(N)NCCC[C@H](N)C(=O)O.Cl [Targinine hydrochloride, reference compound]",
    "group-label": "Satisfied"
  },
  {
    "compound": "CC(=O)O[C@@H]1C[C@H]2C(C)(C)C(=O)C=C[C@]2(C)[C@H]2CC[C@@]3(C)[C@H](c4ccoc4)OC(=O)[C@H]4O[C@]43[C@@]21C [Gedunin]",
    "group-label": "Satisfied"
  },
  {
    "compound": "Cc1ccc(C(=O)c2ccc(CC(=O)O)n2C)cc1 [Tolmetin sodium, reference compound]",
    "group-label": "Not satisfied"
  },
  {
    "compound": "CC(=O)N[C@@H]1[C@@H](O)[C@H](O)[C@@H](CO)O[C@@H]1O [Acetylglucosamine]",
    "group-label": "Satisfied"
  },
  {
    "compound": "NCCCC(=O)O [g-aminobutyric acid]",
    "group-label": "Not satisfied"
  },
  {
    "compound": "O=C1NS(=O)(=O)c2ccccc21 [Saccharin]",
    "group-label": "Not satisfied"
  },
  {
    "compound": "CCOC(=O)[C@H](CCc1ccccc1)N[C@@H](C)C(=O)N1CCC[C@H]1C(=O)O [Enalapril maleate]",
    "group-label": "Satisfied"
  },
  {
    "compound": "CCCC1O[C@@H]2C[C@H]3[C@@H]4CCC5=CC(=O)C=C[C@]5(C)[C@H]4[C@@H](O)C[C@]3(C)[C@]2(C(=O)CO)O1 (stereo partly drawn) [Budesonide]",
    "group-label": "Not satisfied"
  },
  {
    "compound": "c1ccc(CC2=NCCN2)cc1 [Tolazoline hydrochloride]",
    "group-label": "Not satisfied"
  },
  {
    "compound": "CN1[C@@H]2CC[C@H]1C[C@@H](OC(=O)[C@H](CO)c1ccccc1)C2 [Hyoscyamine]",
    "group-label": "Not satisfied"
  }
]

Values compiled from paper PMC2646813.
